PROCEDURE DETAILS: DRUGMATRIX: Interleukin IL-1 radioligand binding (ligand: [125I] interleukin 1beta)
Assay type: cell membranes, Membrane
CONDITION LABEL: nih3t3; Not Active = under 50% inhibition at 10 µM
QUANTITY: Ki

Solved cases (5 shown):
C1CCC(C(CC2CCCCN2)C2CCCCC2)CC1 (stereo not drawn)	Not Active
NC(=O)N1c2ccccc2CCc2ccccc21	Not Active
Cc1c(O)c(=O)ccn1C	Not Active
C[C@H](CS)C(=O)N1CCC[C@H]1C(=O)O	Not Active
CC(C)[C@@]1(NC(=O)[C@@H]2C[C@@H]3c4cccc5[nH]cc(c45)C[C@H]3N(C)C2)O[C@@]2(O)[C@@H]3CCCN3C(=O)[C@H](Cc3ccccc3)N2C1=O.CS(=O)(=O)O [DIHYDROERGOCRISTINE MESYLATE]	Not Active

What value of Ki has been reported for the following compound? Cc1cc(C(C#N)c2ccc(Cl)cc2)c(Cl)cc1NC(=O)c1cc(I)cc(I)c1O (stereo not drawn)
Not Active

# repeat for Cc1ccc(N(CC2=NCCN2)c2cccc(O)c2)cc1
Not Active

# repeat for CCCC1O[C@@H]2C[C@H]3[C@@H]4CCC5=CC(=O)C=C[C@]5(C)[C@H]4[C@@H](O)C[C@]3(C)[C@]2(C(=O)CO)O1 (stereo partly drawn) [BUDESONIDE]
Not Active

* * *

PROCEDURE DETAILS: DRUGMATRIX: GABAA, Flunitrazepam, Central radioligand binding (ligand: [3H] Flunitrazepam)
Format: cell membranes, Rattus norvegicus, Wistar, Brain, Membrane
CONDITION LABEL: Not Active = under 50% inhibition at 10 µM
QUANTITY: Ki

Solved cases (10 shown):
COc1cc2nc(N3CCN(C(=O)C4COc5ccccc5O4)CC3)nc(N)c2cc1OC (stereo unspecified)	Not Active
C[C@H]1c2cccc(O)c2C(=O)C2=C(O)[C@]3(O)C(=O)C(C(N)=O)=C(O)[C@@H](N(C)C)[C@@H]3[C@@H](O)[C@@H]21.O	Not Active
NS(=O)(=O)c1cc2c(cc1Cl)NC(C(Cl)Cl)NS2(=O)=O (stereo unspecified) [TRICHLORMETHIAZIDE]	Not Active
COc1c(C)c2c(c(O)c1C/C=C(\C)CCC(=O)O)C(=O)OC2	Not Active
CC[C@@H](CO)NC(=O)[C@@H]1C=C2c3cccc4[nH]cc(c34)C[C@H]2N(C)C1	Not Active
Cc1cc(C2CCCCC2)n(O)c(=O)c1	Not Active
c1ccc2c(c1)c1cccc3ccc4cccc2c4c31 [BENZO[E]PYRENE]	Not Active
CC(C)C(Br)C(=O)NC(N)=O (stereo unspecified)	Not Active
C[C@H](CCC(=O)O)[C@H]1CC[C@H]2[C@@H]3[C@H](O)C[C@@H]4C[C@H](O)CC[C@]4(C)[C@H]3C[C@H](O)[C@]12C	Not Active
O=c1[nH]c(=O)n([C@H]2C[C@H](O)[C@@H](CO)O2)cc1I	Not Active

Okay, next one:
What value of Ki has been reported for the following compound? Nc1c2c(nc3ccccc13)CCCC2
Not Active

* * *

TESTED ON: Progesterone receptor (Bos taurus)
Sequence (Q690N0 whole entry): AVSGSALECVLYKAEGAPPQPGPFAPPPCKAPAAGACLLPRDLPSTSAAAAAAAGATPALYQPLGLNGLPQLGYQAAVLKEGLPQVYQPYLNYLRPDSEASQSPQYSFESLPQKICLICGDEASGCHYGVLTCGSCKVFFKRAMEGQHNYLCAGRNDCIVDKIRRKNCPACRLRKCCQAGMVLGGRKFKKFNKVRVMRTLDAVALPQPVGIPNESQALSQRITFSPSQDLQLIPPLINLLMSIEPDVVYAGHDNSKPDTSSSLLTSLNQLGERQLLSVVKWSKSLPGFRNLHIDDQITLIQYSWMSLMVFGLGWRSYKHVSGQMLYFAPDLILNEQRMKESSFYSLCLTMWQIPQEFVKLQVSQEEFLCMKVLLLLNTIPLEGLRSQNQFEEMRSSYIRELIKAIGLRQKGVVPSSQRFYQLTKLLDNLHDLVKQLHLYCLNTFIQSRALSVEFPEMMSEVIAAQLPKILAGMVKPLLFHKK
PROCEDURE DETAILS: DRUGMATRIX: Progesterone radioligand binding (ligand: [3H] R-5020)
Type: tissue-based, Uterus
CONDITION LABEL: Not Active = under 50% inhibition at 10 µM; read-out: IC50
QUANTITY: log10 of IC50 (log10 of the value in µM)
Heads up: the numbers are on a log10 scale; they represent IC50 in µM.

CCCC1O[C@@H]2C[C@H]3[C@@H]4CCC5=CC(=O)C=C[C@]5(C)[C@H]4[C@@H](O)C[C@]3(C)[C@]2(C(=O)CO)O1 (stereo partly specified) [BUDESONIDE]	-0.68
C[C@]12CC[C@@H]3c4ccc(O)cc4CC[C@H]3[C@@H]1CCC2=O [ESTRONE]	1.21
CC1(C)O[C@@H]2C[C@H]3[C@@H]4CCC5=CC(=O)CC[C@]5(C)[C@@]4(F)[C@@H](O)C[C@]3(C)[C@]2(C(=O)CCl)O1 [HALCINONIDE]	-3.03
CC(=O)[C@@]1(O)CC[C@H]2[C@@H]3C[C@H](C)C4=CC(=O)CC[C@]4(C)[C@H]3CC[C@@]21C	-0.15
Cc1ccc(-c2cc(C(F)(F)F)nn2-c2ccc(S(N)(=O)=O)cc2)cc1 [CELECOXIB]	1.26

Okay, next one:
What value of log10 of IC50 has been reported for the following molecule? CC1(C)O[C@@H]2C[C@H]3[C@@H]4CCC5=CC(=O)C=C[C@]5(C)[C@@]4(F)[C@@H](O)C[C@]3(C)[C@]2(C(=O)CO)O1 [TRIAMCINOLONE ACETONIDE]
-0.75

* * *

Recorded below: IC50, system Cytochrome P450 2D6 (Homo sapiens). Further: in other assays of this panel Not Active means under 50% inhibition at 10 µM.
Write it as a number; the unit nM goes unstated.

Solved cases (4 shown):
CN(Cc1ccc(C(C)(C)C)cc1)Cc1cccc2ccccc12	300
Cc1nc2n(c(=O)c1CCN1CCC(c3noc4cc(F)ccc34)CC1)CCCC2	5270
Cc1ccc(-c2cc(C(F)(F)F)nn2-c2ccc(S(N)(=O)=O)cc2)cc1	1000
C1CCC(C(CC2CCCCN2)C2CCCCC2)CC1 (stereo not given)	941

Okay, next one:
Lab note: need IC50 for CCCCN1CCCC[C@H]1C(=O)Nc1c(C)cccc1C on Cytochrome P450 2D6 (Homo sapiens), anyone have it?
196

* * *

PROCEDURE DETAILS: DRUGMATRIX: Glutamate, NMDA, Agonism radioligand binding (ligand: [3H] CGP-39653)
Type: cell membranes, Rattus norvegicus, Wistar, Cerebral cortex, Membrane
CONDITION LABEL: Not Active = under 50% inhibition at 10 µM
QUANTITY: IC50

Solved cases (8 shown):
Nc1ncn([C@@H]2O[C@H](CO)[C@@H](O)[C@H]2O)c(=O)n1	Not Active
CCOC(=O)N1CCC(=C2c3ccc(Cl)cc3CCc3cccnc32)CC1	Not Active
CC(=O)[C@@]1(O)CC[C@H]2[C@@H]3C[C@H](C)C4=CC(=O)CC[C@]4(C)[C@H]3CC[C@@]21C	Not Active
CCCOc1ccccc1-c1nc2nn[nH]c2c(=O)[nH]1	Not Active
C[C@H](CCC(=O)O)[C@H]1CC[C@H]2[C@@H]3[C@H](O)C[C@@H]4C[C@H](O)CC[C@]4(C)[C@H]3C[C@H](O)[C@]12C	Not Active
C=C(C)C1(O)OC(=O)C=C1OC (centres undefined)	Not Active
Cc1noc(NS(=O)(=O)c2ccc(N)cc2)c1C	Not Active
CC1(C)O[C@@H]2C[C@H]3[C@@H]4CCC5=CC(=O)CC[C@]5(C)[C@@]4(F)[C@@H](O)C[C@]3(C)[C@]2(C(=O)CCl)O1 [HALCINONIDE]	Not Active

What value of IC50 has been reported for the following molecule? CC1=C2C(=CO[C@H](C)[C@H]2C)C(O)=C(C(=O)O)C1=O
Not Active

# repeat for CCCCc1nc(Cl)c(CO)n1Cc1ccc(-c2ccccc2-c2nnn[nH]2)cc1
Not Active

# repeat for CC[C@@H](CO)NC(=O)[C@@H]1C=C2c3cccc4[nH]cc(c34)C[C@H]2N(C)C1
Not Active

# repeat for CN(Cc1ccc(C(C)(C)C)cc1)Cc1cccc2ccccc12
Not Active

# repeat for COc1c(C)c2c(c(O)c1C/C=C(\C)CCC(=O)O)C(=O)OC2
Not Active

# repeat for N[C@@H](Cc1ccc(O)c(O)c1)C(=O)O
Not Active

# repeat for CC(C)(C)NCC(O)c1cc(Cl)c(N)c(Cl)c1 (centres undefined)
Not Active

# repeat for Cc1onc(-c2ccccc2Cl)c1C(=O)N[C@@H]1C(=O)N2[C@@H]1SC(C)(C)[C@@H]2C(=O)O
Not Active

# repeat for Cc1cc(C2CCCCC2)n(O)c(=O)c1
Not Active

# repeat for COc1cc2c3cc1Oc1cc(ccc1O)C[C@@H]1c4c(cc(OC)c(O)c4Oc4ccc(cc4)C[C@@H]3N(C)CC2)CC[N+]1(C)C.[Cl-]
Not Active

# repeat for Nc1c2c(nc3ccccc13)CCCC2
Not Active

Where do these numbers come from? They come from ChEMBL document CHEMBL1909046.
